Reference source: patent EP0823908B1

Target: mouse PDGF-β receptor tyrosine kinase (Mus musculus, UniProt P05622)
Construct: amplify a fragment of DNA that codes for the intracellular tyrosine kinase domain; made in house; host or cells: SF9 insect cells (baculovirus)
Sequence (P05622 599-961 limits assumed): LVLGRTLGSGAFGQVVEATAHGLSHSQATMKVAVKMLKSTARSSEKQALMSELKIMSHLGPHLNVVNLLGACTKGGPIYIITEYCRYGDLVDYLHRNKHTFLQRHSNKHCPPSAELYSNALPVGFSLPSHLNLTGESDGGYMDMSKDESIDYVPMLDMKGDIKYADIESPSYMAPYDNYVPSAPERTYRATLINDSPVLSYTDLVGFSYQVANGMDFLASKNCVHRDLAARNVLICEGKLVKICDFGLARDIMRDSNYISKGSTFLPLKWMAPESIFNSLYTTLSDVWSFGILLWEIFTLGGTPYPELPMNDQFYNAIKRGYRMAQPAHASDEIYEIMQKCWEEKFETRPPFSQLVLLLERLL
Assay: PDGF receptor tyrosine kinase assay (32P incorporation into glutamate-tyrosine co-polymer)
Format: biochemical
Conditions: read-out: PDGFr-TK % Inhibition at 50 µM
Description: Full length cDNAs for the mouse PDGF-β and human FGF-1 (flg) receptor tyrosine kinases were obtained from J. Escobedo and prepared as described in J. Biol. Chem., 262:1482-1487 […], and PCR primers were designed to amplify a fragment of DNA that codes for the intracellular tyrosine kinase domain. […] Nonspecific activity was defined as radioactivity retained on the filters following incubation of samples with buffer alone (no enzyme). […]
ENDPOINT: inhibition at 50 µM (%)

INSERT INTO results (record_smiles, unit_tag, quantitative_result) VALUES
  ('CCn1c(=O)c(-c2cc(C)cc(C)c2)cc2cnc(Nc3ccccc3)nc21', '%', 12);

(P) CCN(CC)CCCNc1ncc2cc(-c3c(Cl)cccc3Cl)c(=N)n(C)c2n1
(Q) Cn1c(=O)c(-c2c(Cl)cccc2Cl)cc2cnc(O)nc21
query: Lab notebook, comparison: P versus Q , higher inhibition at 50 µM goes to which? Returns: label corresponding to the selected item.
result: P

====

Tested on: HT-29
Experiment: Soft agar colony formation, human colon adenocarcinoma cells
Assay type: cell-based
Settings: HT-29, 336 h, read-out: Inhibition of Human Colon Adenocarcinoma IC50, HT-29
ENDPOINT: pIC50
Please report pIC50 as the negative decimal logarithm of the molar concentration, giving only the number.

query: Any idea what pIC50 was measured for `Cn1c(=O)c(-c2c(Cl)cccc2Cl)cc2cnc(Nc3ccccc3)nc21` ?
result: 6.31

====

Molecular target: human FGF-1 (flg) receptor tyrosine kinase (Homo sapiens)
Construct: amplify a fragment of DNA that codes for the intracellular tyrosine kinase domain; made in house; host or cells: SF9 insect cells (baculovirus)
Sequence (P11362 478-767 limits assumed): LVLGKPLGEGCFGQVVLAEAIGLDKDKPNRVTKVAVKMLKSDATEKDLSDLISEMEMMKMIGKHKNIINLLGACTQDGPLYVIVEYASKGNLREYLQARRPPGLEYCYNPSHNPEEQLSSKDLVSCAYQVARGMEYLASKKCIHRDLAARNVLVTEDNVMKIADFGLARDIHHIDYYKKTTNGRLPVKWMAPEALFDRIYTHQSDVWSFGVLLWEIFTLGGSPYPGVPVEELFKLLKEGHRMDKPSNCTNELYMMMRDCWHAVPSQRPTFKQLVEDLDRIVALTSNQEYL
Test: FGF receptor tyrosine kinase assay (32P incorporation into glutamate-tyrosine co-polymer)
Format: biochemical
Conditions: read-out: FGFr-TK IC50
Experimental: Full length cDNAs for the mouse PDGF-β and human FGF-1 (flg) receptor tyrosine kinases were obtained from J. Escobedo and prepared as described in J. Biol. Chem., 262:1482-1487 […], and PCR primers were designed to amplify a fragment of DNA that codes for the intracellular tyrosine kinase domain. […] Nonspecific activity was defined as radioactivity retained on the filters following incubation of samples with buffer alone (no enzyme). […]
pIC50: −log10 of the molar value.
ENDPOINT: pIC50

INSERT INTO measurements (record_smiles, endpoint, quantitative_result) VALUES
  ('Cn1c(=O)c(-c2ccccc2)cc2cnc(N)nc21', 'pIC50', 4.70),
  ('Cn1c(=O)c(-c2c(Cl)cccc2Cl)cc2cnc(Nc3cccc(Br)c3)nc21', 'pIC50', 5.66);

(I) CCN(CC)CCCNc1ncc2cc(-c3c(Cl)cccc3Cl)c(=N)n(C)c2n1
(II) CC(C)Nc1ncc2cc(-c3c(Cl)cccc3Cl)c(=O)n(C)c2n1
(III) Cn1c(=O)c(-c2c(Cl)cccc2Cl)cc2cnc(Nc3ccc(CC(=O)O)cc3)nc21
query: Please put the entries in order of rising pIC50. Reply format: the labels, ordered as requested.
result: I, II, III
(I: 4.66, II: 6.06, III: 7.21)
